test system: ducksalad; experiment: Test C flooded paddy test; type: in vivo, Heteranthera limosa; conditions: Flood, 125 g ai/ha; scale 0 to 100 (0 no effect, 100 complete control), 13 to 15 days
Observable: Plant response rating, Ducksalad

Some solved cases for reference:
[
  {
    "Structure As Smiles": "N#Cc1cccc(Oc2ncc(Cl)cn2)c1-n1cc(OC(F)F)cn1",
    "Plant response rating, Ducksalad": 75
  },
  {
    "Structure As Smiles": "Fc1cnc(Oc2cccc(C(F)F)c2-n2cc(C(F)(F)F)cn2)nc1",
    "Plant response rating, Ducksalad": 75
  },
  {
    "Structure As Smiles": "COc1cnc(Oc2ccccc2-n2cc(Br)cn2)nc1",
    "Plant response rating, Ducksalad": 0
  }
]

# ---- query compound ----
INPUT: Output measured Plant response rating, Ducksalad for this item: `Fc1cccc(Oc2ncc(Cl)cn2)c1-n1cc(C(F)F)nn1`
OUTPUT: 95

---

tested on: velvetleaf; experiment: Test A preemergence; format: in vivo, Abutilon theophrasti; settings: 125 g ai/ha
Observable: Velvetleaf plant response rating (0 to 100 scale)
Reply: number alone, nothing else.

Some solved cases for reference:
[
  {
    "Structure As Smiles": "Clc1cnc(Oc2cccc(-c3ncco3)c2-n2cc(Br)cn2)nc1",
    "Test Value": 0
  },
  {
    "Structure As Smiles": "FC(F)c1cccc(Oc2ncc(Cl)cn2)c1-n1cc(C(F)(F)F)cn1",
    "Test Value": 80
  },
  {
    "Structure As Smiles": "Fc1cnc(Oc2ccccc2-n2cc(C(F)F)cn2)nc1",
    "Test Value": 70
  },
  {
    "Structure As Smiles": "Clc1cnc(Oc2cccc(Cl)c2-n2cc(Cl)cn2)nc1",
    "Test Value": 20
  },
  {
    "Structure As Smiles": "NN=Cc1cccc(Oc2ncc(Cl)cn2)c1-n1cc(Cl)cn1",
    "Test Value": 0
  },
  {
    "Structure As Smiles": "Fc1cccc(Oc2ncc(Cl)cn2)c1-n1cc(Cl)cn1",
    "Test Value": 80
  }
]

INPUT: Tell me its Velvetleaf plant response rating (0 to 100 scale) on velvetleaf: `COc1cnn(-c2ccccc2Oc2ncc(Cl)cn2)c1`
OUTPUT: 70

---

test system: pigweed; experiment: Test A postemergence; format: in vivo, Amaranthus retroflexus; conditions: 500 g ai/ha, 0 to 100 scale where 0 is no effect and 100 is complete control
Observable: Plant response rating, Pigweed

INPUT: Output measured Plant response rating, Pigweed for this item: `Clc1cnc(Oc2cccc(-c3ncco3)c2-n2cc(Br)cn2)nc1`
OUTPUT: 50

INPUT: Output measured Plant response rating, Pigweed for this item: `COc1cnc(Oc2ccccc2-n2cc(Br)cn2)nc1`
OUTPUT: 100

INPUT: Output measured Plant response rating, Pigweed for this item: `CC1(C)OB(c2cnn(-c3c(C#N)cccc3Oc3ncc(Cl)cn3)c2)OC1(C)C`
OUTPUT: 100

INPUT: Output measured Plant response rating, Pigweed for this item: `FC(F)(F)c1cnn(-c2c(Br)cccc2Oc2ncc(Cl)cn2)c1`
OUTPUT: 100

INPUT: Output measured Plant response rating, Pigweed for this item: CC(F)c1cccc(Oc2ncc(Cl)cn2)c1-n1cc(Br)cn1 (stereo not drawn)
OUTPUT: 100
